B1: TPR t1 (parent)
chain: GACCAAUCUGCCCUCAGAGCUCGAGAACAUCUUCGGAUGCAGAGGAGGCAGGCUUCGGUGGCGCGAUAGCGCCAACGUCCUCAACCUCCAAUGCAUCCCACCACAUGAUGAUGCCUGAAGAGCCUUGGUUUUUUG

Variants of: B1
Experiment: polymerase ribozyme fitness, log enrichment relative to wild type (log ratio); higher = more active; in vitro selection for triplet polymerase activity
Give polymerase ribozyme fitness (log ratio) for every item shown.

Recorded result, C11G G39U C49G C64U G117C , polymerase ribozyme fitness (log ratio): -4.26

The variant listed as G17U G52C A74U G77U C123U shows polymerase ribozyme fitness (log ratio) equal to -2.34

The variant identified as C3U G69U C94G C114A U125A registered its polymerase ribozyme fitness (log ratio) at -3.19

Quick note, polymerase ribozyme fitness (log ratio) for C56U C73G U96A U106A landed at -3.7

Consider A66U C70U C88G . Its measured polymerase ribozyme fitness (log ratio) is -2.66

Given item C8U C82U U116G G117A , the value recorded as its polymerase ribozyme fitness (log ratio) is 0.198

Lab note: U9A C73G G117A gave polymerase ribozyme fitness (log ratio) of 0.428

Value of measured polymerase ribozyme fitness (log ratio) for the entry G10C A27U G39U : -3.03

// sample C8G U38C A50U C115A , its polymerase ribozyme fitness (log ratio) was 0.783

The recorded polymerase ribozyme fitness (log ratio) for entry U14A C49U G52U A121U U125A equals -1.22

Data point: G35U G69U C79U ; polymerase ribozyme fitness (log ratio) = -3.35

The variant C104A C114G G127C showed polymerase ribozyme fitness (log ratio) equal to -6.1

Lab note: U9G C12G G93C gave polymerase ribozyme fitness (log ratio) of -0.487

According to the records, this variant C72U G120A C124U displays polymerase ribozyme fitness (log ratio) of 1.83

The reported value for C70G A90C C114U A121G in terms of polymerase ribozyme fitness (log ratio) is -4.76

Record summary for C70A G93C : reported polymerase ribozyme fitness (log ratio) = -3.33

The variant listed as G36U C124G has a reported polymerase ribozyme fitness (log ratio) of 0.74

Entry U32C G113A U126G U133C ; polymerase ribozyme fitness (log ratio) = -4.07

The reported value for G47U G71A U87A in terms of polymerase ribozyme fitness (log ratio) is -4.27

Reported polymerase ribozyme fitness (log ratio) ( C79U G113U U116A ) = -5.49

Looking up G10U C53G C56U A74C C76A A95G G122U , I found its polymerase ribozyme fitness (log ratio) recorded as -0.515

Kindly note the recorded polymerase ribozyme fitness (log ratio) for C8A G45U C56U A84C A95U , which is -1.21
